target: hAC1 (Homo sapiens)
Construct: expressed in transfected cells
Sequence (Q08828 whole entry): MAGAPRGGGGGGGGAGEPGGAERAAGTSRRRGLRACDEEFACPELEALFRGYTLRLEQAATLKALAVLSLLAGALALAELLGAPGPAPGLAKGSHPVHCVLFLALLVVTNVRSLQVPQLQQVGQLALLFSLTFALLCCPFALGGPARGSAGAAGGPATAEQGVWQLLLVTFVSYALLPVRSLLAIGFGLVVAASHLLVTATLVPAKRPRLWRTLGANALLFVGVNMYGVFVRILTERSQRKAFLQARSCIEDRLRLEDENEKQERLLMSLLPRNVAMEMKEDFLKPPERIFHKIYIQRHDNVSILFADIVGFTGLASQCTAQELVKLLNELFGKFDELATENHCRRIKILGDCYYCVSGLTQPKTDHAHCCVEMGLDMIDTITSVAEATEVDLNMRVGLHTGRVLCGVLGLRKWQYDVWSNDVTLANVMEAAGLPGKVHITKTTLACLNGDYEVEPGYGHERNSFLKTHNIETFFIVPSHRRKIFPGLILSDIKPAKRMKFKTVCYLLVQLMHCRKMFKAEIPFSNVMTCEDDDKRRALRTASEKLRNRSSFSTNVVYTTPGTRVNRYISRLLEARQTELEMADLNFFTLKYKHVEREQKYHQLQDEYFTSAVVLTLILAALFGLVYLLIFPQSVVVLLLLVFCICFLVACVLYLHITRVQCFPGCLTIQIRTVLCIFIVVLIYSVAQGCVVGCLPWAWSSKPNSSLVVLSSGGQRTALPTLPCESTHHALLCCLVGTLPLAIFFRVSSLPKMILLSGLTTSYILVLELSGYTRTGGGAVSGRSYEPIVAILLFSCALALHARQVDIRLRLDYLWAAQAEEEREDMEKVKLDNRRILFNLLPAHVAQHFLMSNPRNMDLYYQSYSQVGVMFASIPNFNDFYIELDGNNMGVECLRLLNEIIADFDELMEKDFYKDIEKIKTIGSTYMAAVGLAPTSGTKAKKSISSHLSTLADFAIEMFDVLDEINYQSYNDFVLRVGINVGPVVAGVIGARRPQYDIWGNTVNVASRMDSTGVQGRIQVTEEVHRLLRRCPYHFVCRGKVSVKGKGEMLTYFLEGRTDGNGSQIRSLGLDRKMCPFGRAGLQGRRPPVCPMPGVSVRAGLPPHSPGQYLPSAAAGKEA
test_description: Cyclic AMP accumulation in HEK cells stably expressing AC1, stimulated with A23187 (HTRF)
Format: cell-based
measurement_conditions: HEK293; HEK-AC1 cells, 30 μM
value_type: inhibition at 30 µM (%)

Consider the worked cases shown below.
{"smiles_input": "Cc1ccc(C(=O)Nc2nnc(-c3ccc(F)cc3)o2)cc1C", "unit_tag": "%", "inhibition at 30 µM": 93}
{"smiles_input": "O=C(Nc1nnc(-c2ccc(F)cc2)o1)c1ccc(Br)cc1", "unit_tag": "%", "inhibition at 30 µM": 78}
{"smiles_input": "CC(C)Oc1ccc(C(=O)Nc2nnc(-c3ccc4c(c3)OCCO4)o2)cc1", "unit_tag": "%", "inhibition at 30 µM": 88}
{"smiles_input": "O=C(Nc1nnc(-c2ccc(F)cc2)o1)c1ccc(F)cc1", "unit_tag": "%", "inhibition at 30 µM": 64}
{"smiles_input": "O=C(Nc1nnc(C2CCCCC2)o1)c1cccc(-c2ccccc2)c1", "unit_tag": "%", "inhibition at 30 µM": 99}

P = CC(C)Oc1ccc(C(=O)Nc2nnc(C3CCCCC3)o2)cc1
Q = O=C(Nc1nnc(-c2cccs2)o1)c1ccccc1
R = O=C(Nc1nnc(-c2ccc(F)cc2)o1)c1ccccc1F
Qu. Sort low-to-high on inhibition at 30 µM, please. Output the labels ranked as instructed.
Ans. R, Q, P
(R: 12%, Q: 56%, P: 86%)
